For each record, write down the corresponding inhibition.
- Target or test system: Serine/threonine-protein kinase SIK1 (Homo sapiens)
- Experimental setup: at 1 µM
Answer by giving the amount and then stating its unit.

In: Return reported inhibition for target or system Serine/threonine-protein kinase SIK1 (Homo sapiens), item O=C1NC(=O)C(c2ccccc2Cl)=C1Nc1cccc(O)c1 .
Out: 5.5%

In: Return reported inhibition for target or system Serine/threonine-protein kinase SIK1 (Homo sapiens), item Cc1ccc(NC(=O)c2ccnc(N3CCCC3)c2)cc1-c1ccc(C(=O)NCC2CC2)cc1 .
Out: 8.28%

In: Return reported inhibition for target or system Serine/threonine-protein kinase SIK1 (Homo sapiens), item CNC(=O)c1cncc(/C=C/c2c(Cl)cccc2Cl)c1 .
Out: 50.9%

In: Return reported inhibition for target or system Serine/threonine-protein kinase SIK1 (Homo sapiens), item COc1ccc2cc(-c3c(-c4ccncc4)nc(-c4ccc([S+](C)[O-])cc4)n3C)ccc2c1 (stereo not given) .
Out: 1.89%

In: Return reported inhibition for target or system Serine/threonine-protein kinase SIK1 (Homo sapiens), item CS(=O)(=O)CCN(CC#N)Cc1ccc(-c2ccc3ncnc(Nc4ccc(OCc5cccc(F)c5)c(Cl)c4)c3c2)o1 .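 Further: mean inhibition value from the GSK PKIS profiling set.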
Out: 9.27%
